reported_property: melting point

Below are worked cases with known answers.
Lookup: Any idea what melting point was measured for CS(=O)(=O)c1ccc(-c2nnc(Cl)cc2-c2ccc(Cl)cc2)cc1 [Example 60] ?
Found: 189.6 to 190.5 °C

Lookup: Try the molecule CSc1ccc(-c2nnc(Sc3ccccc3)cc2-c2ccc(Sc3ccccc3)cc2)cc1 [Example 32]
Found: 53.3 to 56.2 °C

Lookup: Please give the result for CSc1ccc(-c2nnc(Cl)cc2-c2ccc(Cl)cc2)cc1 [Example 31] too.
Found: 145 to 145.8 °C

Lookup: Here is the next molecule: CSc1ccc(-c2nnc(SC)cc2-c2ccc(F)cc2)cc1 [Example 46]
Found: 165.8 to 169.5 °C

# context switch: different molecule, same melting point
Lookup: Which melting point value is on record for COc1ccc(-c2nnc(Oc3ccc(F)cc3F)cc2-c2ccccc2)cc1 [Example 26] ?
Found: 169 to 169.9 °C
